Source of measurements: PubChem BioAssay AID1963845

Tested on: 429239-143-T-J1-PDC complex spheroid viability;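 note: luminescence signal used as surrogate measure of viable cells; spheroids exposed to compounds for seven days before readout; 100% = DMSO vehicle control viability as luminescence relative to vehicle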
Test: Anticancer human tumor 429239-143-T-J1-PDC patient-derived small cell lung carcinoma cell line growth inhibition [POLQ]; active = viability on the fitted dose curve at most 10% of control; inactive = the rest
Conditions: second compound 10 µM; first compound 1 µM
Hi there, use one of these labels in your reply, thanks! yes (1) (active), no (0) (inactive)

Reference set (2 entries):
[
  {
    "compound": "CC1COCCN1c1cc(C2(O)CC3CCC(C2)O3)c2cnn(-c3ccn[nH]3)c2n1 (stereo not drawn) + Nc1ccc(C#CCN(C(=O)Cc2ncc(C(F)(F)F)cc2C(F)(F)F)c2ccc(F)cc2)nn1",
    "class assignment": "yes (1)"
  },
  {
    "compound": "COc1cccc2c1C(=O)c1c(O)c3c(c(O)c1C2=O)CC(O)(C(=O)CO)CC3OC1CC(N)C(O)C(C)O1 (stereo not drawn) + Nc1ccc(C#CCN(C(=O)Cc2ncc(C(F)(F)F)cc2C(F)(F)F)c2ccc(F)cc2)nn1",
    "class assignment": "yes (1)"
  }
]

With those in mind, consider the next compound.
Write down the call the test reported for this compound. Item: O=C(Nc1ccc(O)c(NS(=O)(=O)c2ccc(F)cc2)c1)c1ccc(-c2ccccc2)cc1 + Nc1ccc(C#CCN(C(=O)Cc2ncc(C(F)(F)F)cc2C(F)(F)F)c2ccc(F)cc2)nn1
no (0)
